- measured_on: T1, human 5T4-His protein (human, UniProt Q13641 32-355)
- T1 construct: also called recombinant 5T4 protein (human 5T4-his tag); human 5T4 protein; not shown: His tag
- T1 sequence (looked up): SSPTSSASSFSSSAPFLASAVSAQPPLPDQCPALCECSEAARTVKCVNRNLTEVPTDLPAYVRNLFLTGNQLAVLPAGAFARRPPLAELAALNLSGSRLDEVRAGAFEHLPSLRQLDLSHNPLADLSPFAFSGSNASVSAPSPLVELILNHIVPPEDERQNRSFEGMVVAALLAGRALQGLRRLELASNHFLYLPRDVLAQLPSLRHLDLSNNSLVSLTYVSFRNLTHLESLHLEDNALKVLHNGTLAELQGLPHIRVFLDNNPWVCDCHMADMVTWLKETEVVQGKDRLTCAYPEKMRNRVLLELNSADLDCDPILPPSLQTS
- assay_details: SPR Biacore, Protein A capture

| binder | unit_symbol | koff |
| --- | --- | --- |
| 393E9_hVH2_hVL2 (antibody, V domains shown, humanized) VH: EVQLVESGGGLIQPGGSLRLSCAASGFTFTDYYMSWVRQPPGKGLEWVGFIRNKGNGYTTENSASVKGRFTISRDNSKSTLYLQMNSLRAEDTAVYYCARYRGNPHYAMDYWGQGTLVTVSS VL: EIVLTQSPATLSVSPGERATLSCRASESVEFYGTSFLQWYQQKPGQAPRLLIYGASNVESGIPARFSGSGSGTEFTLTISSLQSEDIAVYFCQQSRKVPSTFGGGTKVEIK | s⁻¹ | 0.00012 |
| 393E9_hVH4_hVL3 (antibody, V domains shown, humanized) VH: EVQLVESGGGLVQPGGSLRLSCAASGFTFTDYYMSWVRQAPGKGLEWVGFIRNKGNGYTTENSASVKGRFTISRDNSKSSLYLQMNSLKTEDTAVYYCARYRGNPHYAMDYWGQGTLVTVSS VL: DIQLTQSPSSLSASVGDRVTITCRASESVEFYGTSFLQWYQQKPGKAPKLLIYGASNVESGVPSRFSGSGSGTDFTLTISSLQPEDIATYFCQQSRKVPSTFGGGTKVEIK | s⁻¹ | 0.000128 |
